METHOD_SUMMARY: recombinant barcode read abundance after kanamycin selection (control-corrected) (log10(CPM+1)); higher = more efficient recombination; sequences stand for … in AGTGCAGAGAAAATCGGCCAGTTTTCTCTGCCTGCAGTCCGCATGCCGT…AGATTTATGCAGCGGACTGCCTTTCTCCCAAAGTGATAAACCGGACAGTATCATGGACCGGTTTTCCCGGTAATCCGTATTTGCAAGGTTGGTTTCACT; site = the 11-nt target
Decision: recombinant barcode read abundance (log10) >= 0.3 yields MET, all other cases yield NOT MET.

[ask] Check the entry TCGCACCCTTGGGTTCTAACCTGTTGCGA (site TCGGACCCTTC) : does recombinant barcode read abundance (log10) equal or exceed 0.3?
[reply] MET

[ask] Check the entry CGGACGCCTTGGGTTCTAACCTGTTGCCT (site CGGACGTCTAG) : does recombinant barcode read abundance (log10) equal or exceed 0.3?
[reply] NOT MET

[ask] Check the entry GTCGTAGCTTGGGTTCTAACCTGTTGCTA (site GTCGTAGCTTA) : does recombinant barcode read abundance (log10) equal or exceed 0.3?
[reply] MET

[ask] Check the entry TGGCGCTCTTGGGTTCTAACCTGTTGCCT (site TGGCGCTCTAG) : does recombinant barcode read abundance (log10) equal or exceed 0.3?
[reply] MET

[ask] Check the entry TAATCCTCTTGGGTTCTAACCTGTTGCCT (site GAATCCTCTAG) : does recombinant barcode read abundance (log10) equal or exceed 0.3?
[reply] NOT MET

[ask] Check the entry TTGAAATCTTGGGTTCTAACCTGTTGCCT (site TTGACATCTAG) : does recombinant barcode read abundance (log10) equal or exceed 0.3?
[reply] NOT MET

[ask] Check the entry GTACGCGCTTGGGTTCTAACCTGTTGCGT (site CTACGCGCTAA) : does recombinant barcode read abundance (log10) equal or exceed 0.3?
[reply] MET

[ask] Check the entry ACACATACTTGGGTTCTAACCTGTTGCCT (site ACGCATACTAG) : does recombinant barcode read abundance (log10) equal or exceed 0.3?
[reply] NOT MET

[ask] Check the entry CTCTACCCTTGGGTTCTAACCTGTTGCAG (site AGAGCGACTTA) : does recombinant barcode read abundance (log10) equal or exceed 0.3?
[reply] NOT MET

[ask] Check the entry TCACAGGCTTGGGTTCTAACCTGTTGCCG (site TCACAGGCTCG) : does recombinant barcode read abundance (log10) equal or exceed 0.3?
[reply] MET

[ask] Check the entry GATCCTACTTGGGTTCTAACCTGTTGCCT (site GATCCTACTAG) : does recombinant barcode read abundance (log10) equal or exceed 0.3?
[reply] MET

[ask] Check the entry AGCCCTCCTTGGGTTCTAACCTGTTGCTC (site AGCCCTCCTTA) : does recombinant barcode read abundance (log10) equal or exceed 0.3?
[reply] NOT MET

[ask] Check the entry ACCGCTCCTTGGGTTCTAACCTGTTGCCT (site AACGCTCCTAG) : does recombinant barcode read abundance (log10) equal or exceed 0.3?
[reply] NOT MET

[ask] Check the entry CTTCAGGCTTGGGTTCTAACCTGTTGCCT (site CTTCAGGCTAG) : does recombinant barcode read abundance (log10) equal or exceed 0.3?
[reply] MET

[ask] Check the entry TAGTTTCCTTGGGTTCTAACCTGTTGCGT (site TAGTTTCCTAC) : does recombinant barcode read abundance (log10) equal or exceed 0.3?
[reply] MET

[ask] Check the entry CTAGGAGCTTGGGTTCTAACCTGTTGCGT (site CTAGGAGCTAC) : does recombinant barcode read abundance (log10) equal or exceed 0.3?
[reply] MET

[ask] Check the entry TTGAGCTCTTGGGTTCTAACCTGTTGCCT (site TTGAGCTCTAG) : does recombinant barcode read abundance (log10) equal or exceed 0.3?
[reply] MET

[ask] Check the entry GTAGCGACTTGGGTTCTAACCTGTTGCCT (site GTAGCGACTAG) : does recombinant barcode read abundance (log10) equal or exceed 0.3?
[reply] MET

[ask] Check the entry CCTTCTACTTGGGTTCTAACCTGTTGCTA (site CCTTCTACTAG) : does recombinant barcode read abundance (log10) equal or exceed 0.3?
[reply] NOT MET

[ask] Check the entry GGAGAGGCTTGGGTTCTAACCTGTTGCCT (site GGAGATGCTAG) : does recombinant barcode read abundance (log10) equal or exceed 0.3?
[reply] NOT MET

[ask] Check the entry TCGAAGACTTGGGTTCTAACCTGTTGCCA (site TCGAAGACTTG) : does recombinant barcode read abundance (log10) equal or exceed 0.3?
[reply] NOT MET

[ask] Check the entry GCTGCTCCTTGGGTTCTAACCTGTTGCGT (site GCTGCTCCTAC) : does recombinant barcode read abundance (log10) equal or exceed 0.3?
[reply] MET

[ask] Check the entry CGGATCCCTTGGGTTCTAACCTGTTGCCT (site CTGATCCCTAG) : does recombinant barcode read abundance (log10) equal or exceed 0.3?
[reply] NOT MET

[ask] Check the entry GGCGTCCCTTGGGTTCTAACCTGTTGCCT (site GGCGTCCCTAG) : does recombinant barcode read abundance (log10) equal or exceed 0.3?
[reply] MET

[ask] Check the entry TGGTGCCCTTGGGTTCTAACCTGTTGCGT (site TGGGGCCCTAG) : does recombinant barcode read abundance (log10) equal or exceed 0.3?
[reply] NOT MET

[ask] Check the entry CGGACTTCTTGGGTTCTAACCTGTTGCCT (site CCGACTTCTAG) : does recombinant barcode read abundance (log10) equal or exceed 0.3?
[reply] NOT MET

[ask] Check the entry CCTGGGACTTGGGTTCTAACCTGTTGCGT (site CCTGGGACTCC) : does recombinant barcode read abundance (log10) equal or exceed 0.3?
[reply] MET

[ask] Check the entry AGATGTGCTTGGGTTCTAACCTGTTGCCT (site CACAAACCTCT) : does recombinant barcode read abundance (log10) equal or exceed 0.3?
[reply] NOT MET

[ask] Check the entry GTAGTACCTTGGGTTCTAACCTGTTGCCT (site GTAGTAACTAG) : does recombinant barcode read abundance (log10) equal or exceed 0.3?
[reply] NOT MET

[ask] Check the entry GGAATTCCTTGGGTTCTAACCTGTTGCCT (site GGAATTCCTAG) : does recombinant barcode read abundance (log10) equal or exceed 0.3?
[reply] NOT MET

[ask] Check the entry CTACGTCCTTGGGTTCTAACCTGTTGCTT (site CTACGTCCTAA) : does recombinant barcode read abundance (log10) equal or exceed 0.3?
[reply] MET

[ask] Check the entry CTAAGAACTTGGGTTCTAACCTGTTGCTT (site CTAAGAACTAA) : does recombinant barcode read abundance (log10) equal or exceed 0.3?
[reply] NOT MET

[ask] Check the entry CGGCGTCCTTGGGTTCTAACCTGTTGCTA (site CGGAGTCCTTA) : does recombinant barcode read abundance (log10) equal or exceed 0.3?
[reply] NOT MET

[ask] Check the entry AGCCCTCCTTGGGTTCTAACCTGTTGCTC (site AGCCCTCCTGA) : does recombinant barcode read abundance (log10) equal or exceed 0.3?
[reply] MET

[ask] Check the entry CACAGATCTTGGGTTCTAACCTGTTGCTT (site CACAGATCTAA) : does recombinant barcode read abundance (log10) equal or exceed 0.3?
[reply] MET

[ask] Check the entry TCAGGTACTTGGGTTCTAACCTGTTGCCT (site CCAGGTACTAG) : does recombinant barcode read abundance (log10) equal or exceed 0.3?
[reply] NOT MET

[ask] Check the entry CGGCTCACTTGGGTTCTAACCTGTTGCTA (site CGGCACACTAA) : does recombinant barcode read abundance (log10) equal or exceed 0.3?
[reply] NOT MET

[ask] Check the entry ATTCAGACTTGGGTTCTAACCTGTTGCGG (site ATTCAGACTCC) : does recombinant barcode read abundance (log10) equal or exceed 0.3?
[reply] MET

[ask] Check the entry CTAACTACTTGGGTTCTAACCTGTTGCCT (site CTAACCACTTG) : does recombinant barcode read abundance (log10) equal or exceed 0.3?
[reply] NOT MET

[ask] Check the entry GGGCTCACTTGGGTTCTAACCTGTTGCCT (site GGGCTCACTAG) : does recombinant barcode read abundance (log10) equal or exceed 0.3?
[reply] MET

[ask] Check the entry GAAGAGTCTTGGGTTCTAACCTGTTGCCT (site GGAGAGTCTAG) : does recombinant barcode read abundance (log10) equal or exceed 0.3?
[reply] NOT MET

* * *

METHOD_SUMMARY: recombinant UMI read abundance after kanamycin selection (control-corrected) (log10(CPM+1)); higher = more efficient recombination; extreme values may be limits of the assay; sequences stand for … in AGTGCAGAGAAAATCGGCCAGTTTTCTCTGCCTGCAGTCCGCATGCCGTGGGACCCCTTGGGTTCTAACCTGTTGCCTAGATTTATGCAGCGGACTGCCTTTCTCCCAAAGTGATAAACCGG…AGGTTGGTTTCACT; site = the 11-nt donor
OBSERVATION_TYPE: recombinant UMI read abundance (log10)
When you answer, write just the number.

// sample CTCTCCACATGGACCGGTTTTCCCGGTAATCCGTATTTGTC (site CTCTCCACTGA) , its recombinant UMI read abundance (log10) was 2.77

// sample GACTCCTCATGGACCGGTTTTCCCGGTAATCCGTATTTGAA (site GACTCCTCTTT) , its recombinant UMI read abundance (log10) was 1.75

// sample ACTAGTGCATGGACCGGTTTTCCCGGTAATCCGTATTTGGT (site ACTAGTGCTAG) , its recombinant UMI read abundance (log10) was 0.699

// sample CGAGGTGCATGGACCGGTTTTCCCGGTAATCCGTATTTGAT (site CAAGGTGCTAT) , its recombinant UMI read abundance (log10) was 1.84

// sample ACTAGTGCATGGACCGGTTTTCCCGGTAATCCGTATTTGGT (site ACTACTGCTAC) , its recombinant UMI read abundance (log10) was 0.285

// sample CACGGCCCATGGACCGGTTTTCCCGGTAATCCGTATTTGTA (site CACGGCCCTGA) , its recombinant UMI read abundance (log10) was 1.81

// sample GAACGGACATGGACCGGTTTTCCCGGTAATCCGTATTTGAA (site GAACGGACTTT) , its recombinant UMI read abundance (log10) was 0.965

// sample AAAGGTTCATGGACCGGTTTTCCCGGTAATCCGTATTTGGG (site AAAGGTTCTCC) , its recombinant UMI read abundance (log10) was 1.05

// sample GGTGTCCCATGGACCGGTTTTCCCGGTAATCCGTATTTGAA (site GGTGTCCCTTT) , its recombinant UMI read abundance (log10) was 0.0114
